Reported melting point values for the following molecules.

For orientation, consider the following solved cases.
molecule=Nc1ccc(-n2cnn(-c3ccc(OC(F)(F)F)cc3)c2=O)cc1 assayresult="115 to 120 °C"
molecule=CCCC=Cc1c(C(C)C)nc(C(C)C)c(CO)c1-c1cccc(F)c1 assayresult="117 to 118 °C"
molecule=CCOC(=O)c1cnc2[nH]ncc2c1O assayresult="275 °C"
molecule="O=C(O)Cc1ccc(N2C(=O)C3CCCCC3C2=O)cc1 (stereo not given)" assayresult="219 to 221 °C"
molecule=CCCC(=O)c1cc(C(=O)O)c(N)cc1C assayresult="184 to 186 °C"

Report measured melting point; entry is CC(C)N(C(=O)CN1C(=O)C(NC(=O)Nc2ccccc2)C(=O)N(c2ccccc2)c2ccccc21)c1ccccc1 (stereo not given)
230 to 235 °C

* * *

Recorded melting point for the following compounds

compound=COc1ccc(C(=O)Nc2ccc(C(C)(C)c3noc(COc4ccccc4)n3)cc2)cc1OC assayresult="165 to 167 °C"
compound=CN(CCCCNC(=NCCCOc1cccc(CN2CCCCC2)c1)NC#N)CCN(Cc1ccc(F)cc1)c1ccccn1 assayresult="84 to 86 °C"
compound=OCC1=CC=C(COc2cc(C(F)(F)F)ccc2Cl)SS1 assayresult="94.2 to 96 °C"

Assign melting point to the following record: Oc1ccc2c(c1)CCCC2n1cc[nH]c1=S (configuration not stated)
213 to 215 °C

Specify melting point for Cc1ccc(N2CSC(=NCc3ccc(C(F)(F)F)cc3)N(CC(F)(F)F)C2=O)cc1 and stop.
97 to 98.5 °C

Name the recorded melting point of the compound listed here: CC(C)C(=O)Nc1ccn2nc(-c3ccccc3)c(-c3ccc(=O)n(C(C)C)n3)c2c1
199 to 200 °C

# return recorded melting point for input CCOc1cccc(OCC)c1NC(=O)Cc1c(-c2ccccc2OC)c2cc(Cl)ccc2n1C
180 to 183 °C

Consider the compound COc1cc(OC)nc(Nc2cc(C)ccc2N)n1 . State its measured melting point.
128 to 129 °C

For the compound Cc1sc(-n2cccc2C=O)c(C#N)c1C , report melting point.
154 °C

Give the reported melting point for this compound. O=C(Nc1ccccc1)c1cc(Br)ccc1O
229 to 230 °C

Specify reported melting point for the compound shown: C[C@H]1C[C@@H](Nc2ccccc2)c2ccccc2N1C(=O)c1ccccn1 (relative stereo)
157 °C

Return reported melting point. Input compound: N#CCOc1cccnc1N
100 to 101 °C

* * *

assayReadout: melting point

compound="CC(O)C1COCc2nc3c(N)nc4ccccc4c3n21 (stereo unspecified)" assayreadout="melting point" assayresult="208 to 209 °C"
compound=CCOC(=O)c1c(C)nn(-c2cccc(C)c2)c1C assayreadout="melting point" assayresult="46.5 to 47.5 °C"

Let us move to another entry and its melting point.
Answer with reported melting point of Cc1nc(-c2ccc(Br)cc2)n(-c2ccc(S(N)(=O)=O)cn2)n1
221 to 222 °C

* * *

assayReadout: melting point

Here is how some compounds turned out for melting point.
compound=CCN(CC)C(=O)Nc1cc(-c2c(-c3cccc(C)c3)nc3cccnn23)ccn1 assayresult="166 to 167 °C"
compound=CC1(C)OC(c2ccc(S(C)(=O)=O)cc2)=C(c2cc3ccccc3o2)C1=O assayresult="140 to 141 °C"
compound=NC(=O)CCN1CCC(C(O)(c2ccc(F)cc2)c2ccc(F)cc2)CC1 assayresult="136 to 137 °C"
compound="CCC1(Cl)NN=C2C=Nc3cc(Cl)c(Cl)cc3N21 (stereo not given)" assayresult="198 to 201 °C"
compound="COc1ccc(C2CC3(C)C(=O)CCC3C3CCC4=CC(=O)CCC4C23)cc1 (stereo not given)" assayresult="155 to 156 °C"
compound=COc1ccc2c(c1OC)C=NCN2CCC(=O)O assayresult="226 to 228 °C"

# return recorded melting point for input COc1ccccc1C1C2CCC(C2)C12CCC(=O)N2 (stereo not given)
260 °C

Item O=C(O)C1CCc2cc(O)ccc21 (stereo not given) : provide melting point
137 to 138 °C

For the compound CC(N)Cn1ncc2ccc3c(c21)C(N)C(O)CO3 (stereo not given) , report melting point.
84 to 88 °C

Indicate its recorded melting point; the compound in question is NS(=O)(=O)c1ccc(NN=C2C(=O)Nc3ccc(C(=O)NCCCO)cc32)cc1
> 230 °C

* * *

Below, each entry is listed with its recorded melting point.

Below, 4 compounds whose answers are already recorded.
smilesdata=NS(=O)(=O)c1ccc(-c2noc(-c3cnn4c(C(F)F)cc(-c5ccc(C(F)(F)F)cc5)nc34)n2)s1 assayresult="278 °C"
smilesdata=O=[N+]([O-])c1ccc(-n2nccn2)cc1 assayresult="183 to 184 °C"
smilesdata=Cc1ccnc2ccc(Cc3cnc(N)nc3N)cc12 assayresult="262 to 268 °C"
smilesdata=O=[N+]([O-])c1cc(-c2ccccc2)ccc1Cl assayresult="43 to 44 °C"

Attention now shifts to the item below.
Please give measured melting point of the following entry: COc1ccc(Nc2ncc3cc4ccccc4n3n2)cc1
197 to 200 °C

* * *

The reader will find reported melting point values listed item by item below.

compound=NCCCCCCOc1ccccc1C(=O)Nc1ccc(C(=O)N2CCCCc3ccccc32)cc1 assayresult="136 to 138 °C"

For the compound N#CC1OC(=O)c2c(F)ccc(F)c21 (configuration not stated) , give its reported melting point.
87 to 89 °C

* * *

assayReadout: melting point

molecule="COc1ccc(CC2CCC3=C(CCC(=O)N3)C2)cc1 (centres undefined)" assayresult="176 to 177 °C"
molecule=C[C@H](CO)Nc1nc(SCc2ccccc2F)nc2[nH]c(=O)cnc12 assayresult="203 to 205 °C"
molecule="COc1ccc(C2(C#N)CCC(C(N)=O)CC2)cc1OC1CCCC1 (centres undefined)" assayresult="100 to 102 °C"
molecule="Cc1c(COc2ccc(-c3ccc(S(=O)(=O)NC(C(=O)O)C(C)C)cc3)cc2)oc2ccc(Br)c(OC(C)C)c12 (centres undefined)" assayresult="137 to 140 °C"
molecule=COc1ccc(-c2cc3cc(OC)cc([N+](=O)[O-])c3o2)cc1 assayresult="141 °C"

Find the measured melting point of CCCCCCCCCCCCCCOc1ccc(N)cc1OCCCCCCCCCCCCCC and report it.
55 to 58 °C

Identify melting point associated with the molecule O=C(N[C@@H](CC1CCCCC1)C(=O)N[C@@H](Cc1ccccc1)C(=O)CSCc1ccco1)OCc1ccccc1
124 to 125 °C

Name the recorded melting point of the item CC(n1cnc2cc(-c3ccc(C4=NCCO4)cc3)sc2c1=O)C(O)(Cn1cncn1)c1ccc(F)cc1F (centres undefined) in your answer.
235 to 236 °C

Give melting point for the following molecule: CC(=O)OCC1Cc2cccc3c(C4=C(c5cn(C)c6ccccc56)C(=O)OC4=O)cn(c23)C1 (centres undefined)
198 to 200 °C

* * *

Each record here notes measured melting point.

These recorded examples may help you get a feel for the data.
molecule=O=[N+]([O-])C=C1SCCN1Cc1ccccc1 assayresult="136 to 138 °C"
molecule=Cc1ccc(S(=O)(=O)Oc2ccc(S(=O)(=O)c3c(-c4ccccc4)noc3C(C)C)cc2)cc1 assayresult="148 to 149 °C"
molecule=CSc1ccc2[nH]c(C(=O)O)cc(=O)c2c1 assayresult="256 to 257 °C"
molecule="CCCCCCCC(=O)c1ccc(CCC(C)(COC(C)=O)NC(C)=O)cc1 (stereo not given)" assayresult="88 to 89 °C"
molecule="O=C1NC(=S)SC1Cc1cccc2c1CCC(=O)N2Cc1ccc(Br)cc1 (stereo not given)" assayresult="191 to 192 °C"
molecule=O=C(O)c1ccccc1Nc1ccc(O)c(Cl)c1 assayresult="180 to 183 °C"

Retrieve melting point measured for Oc1ccc(-c2noc(C3(CSc4ccccc4)CC3)c2-c2ccccc2)cc1 and print it.
180 to 181 °C

Identify measured melting point corresponding to COc1ccc(C(=O)NC2N=C(c3ccccc3F)c3ccccc3NC2=O)cc1OC (racemic)
206 to 208 °C

Assign melting point to the following record: CN1C(=O)CC(C(=O)Nc2nccs2)C(=O)c2ccc(Cl)cc21 (stereo not given)
238 to 240 °C

Please report melting point for the following molecule: COC(=O)CN(C)S(=O)(=O)c1ccc(Cl)cc1
80 to 80.5 °C

* * *

assayReadout: melting point

Recorded melting point, per entry:
compound=COC=C(C(=O)OC)c1ccccc1CON=C(C)C(=NOC)c1ccc(CCc2ccc(Cl)cc2Cl)cc1 assayresult="112 to 114 °C"
compound=CCN(CC)C(=O)c1cc(-c2ccccc2)c2ccccc2c1 assayresult="123 to 124 °C"
compound=CC(=O)Sc1cc(-c2ccc(C(F)(F)F)n(C)c2=O)c(F)cc1Cl assayresult="91 to 92 °C"
compound=FC(F)(F)c1cc(C(F)(F)F)n(-c2ccc(NCc3ccncc3)cc2)n1 assayresult="92 to 94 °C"
compound=CCOc1cc(Br)cc2c1OC(C)(C)C2 assayresult="55 to 58 °C"
compound=Cc1ccc(C(N)=S)c(N)c1 assayresult="172 to 174 °C"
compound=O=C(Nc1ccccc1)Nc1cccc(Nc2ncnc3[nH]cc(C(=O)c4ccccc4)c23)c1 assayresult="> 300 °C"
compound="N=C(N)N(CCCC(C=O)NC(=O)C1CCCN1C(=O)c1cc2ccccc2[nH]1)C(=O)OCc1ccccc1 (stereo unspecified)" assayresult="111 to 133 °C"

// fetch melting point given entry FC(F)(F)c1cccc(C2=CCNc3ccnn32)c1
61 to 64 °C

Supply measured melting point of CCC1SC=C(C)NC1=O (stereo unspecified) in your reply.
69 to 71 °C

Name the recorded melting point of the item Cc1cc2c(c3occ(-c4ccc(C(C)C)cc4)c13)CCCC2 in your answer.
97 to 98 °C

Consider the compound CC(C)(C)c1cc(CCc2ccccc2NC(=O)NCc2ccccc2)cc(C(C)(C)C)c1O . State its measured melting point.
181 to 183 °C

Please report the measured melting point for CNCC1CCN(c2c(F)cc3c(=O)c(C(=O)O)cn4c3c2OCC4C)C1 (stereo unspecified)
235 to 238 °C

Tell me melting point reported for CC1Cc2ccc(Cl)cc2CN(CCO)C1=O (stereo unspecified)
139 to 140 °C

In one line, give reported melting point of the entry CCOc1cc(C)ccc1C1CCN(CCCCNC(=O)c2ccc(C=Cc3ccc(C(F)(F)F)cc3)cc2)CC1 .
210 °C

Quote melting point reported for Cc1[nH]c(=O)sc1C#N please.
180 to 181 °C

Please supply the value of reported melting point for the item CC(N)C(=O)N1C(C(=O)O)CC2CCCCC21 (stereo unspecified)
163 to 165 °C

Dear colleague, please send me the reported melting point for O=C1c2ccccc2CN1CCCSc1ccncc1 when you can.
73 to 74.5 °C

Please indicate melting point recorded for Cc1cc(-n2ccnc2)c2cccc(OCc3c(Cl)ccc(S(=O)(=O)N4CCC[C@H]4C(=O)NC4CC4)c3Cl)c2n1
108 °C

Give the value of melting point reported for the following: CC(=O)Nc1ccc(C(=O)Nc2ccc(O)cc2)cc1
275 to 277 °C

Give the reported value of melting point for this record: O=c1[nH]c(=O)n2c3c(cccc13)S(=O)c1ccc(C(F)(F)F)cc1-2 (stereo unspecified)
302 to 304 °C
